Target: T1, human CD22-ECD-His protein (human, UniProt P20273 20-687)
T1 construct: Recombinant, from HEK293E cells; also called hCD22-ECD-His; human CD22-His protein; not shown: His tag
T1 sequence: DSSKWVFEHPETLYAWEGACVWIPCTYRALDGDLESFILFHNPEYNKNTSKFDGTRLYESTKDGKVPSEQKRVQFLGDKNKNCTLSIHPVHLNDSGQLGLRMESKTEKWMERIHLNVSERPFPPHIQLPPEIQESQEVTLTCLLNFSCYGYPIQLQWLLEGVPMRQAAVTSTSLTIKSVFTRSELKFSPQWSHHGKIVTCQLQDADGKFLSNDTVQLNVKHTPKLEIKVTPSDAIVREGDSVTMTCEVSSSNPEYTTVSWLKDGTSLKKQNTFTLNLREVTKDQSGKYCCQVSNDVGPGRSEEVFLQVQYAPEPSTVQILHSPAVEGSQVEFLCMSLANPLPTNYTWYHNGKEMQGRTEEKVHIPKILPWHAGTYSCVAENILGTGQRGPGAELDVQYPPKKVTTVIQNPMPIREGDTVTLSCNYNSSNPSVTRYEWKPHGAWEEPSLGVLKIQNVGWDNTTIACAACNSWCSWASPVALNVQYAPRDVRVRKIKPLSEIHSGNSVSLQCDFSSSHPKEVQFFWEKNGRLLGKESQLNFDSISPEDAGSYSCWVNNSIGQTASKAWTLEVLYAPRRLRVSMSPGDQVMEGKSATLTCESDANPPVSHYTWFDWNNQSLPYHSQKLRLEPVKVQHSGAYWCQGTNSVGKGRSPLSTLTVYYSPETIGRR
Assay: SPR (Biacore), antibody captured on Protein A chip, CD22-ECD-His in solution
Short version: kon at least 300000 M⁻¹ s⁻¹ is met, less is not met.

- binder: "F2.42.9 (antibody, human IgG1, lambda, V domains shown, Chimeric IgG1 lambda) VH: QVTLKESGPGILQPSQTLSLTCSFSGFSLSTFDRGVGWIRQPSGKGLEWLAHIWWNDKKFYNPVLKSRLTISKDTSKNQVFLTIANVDSADTATYSCARIVWDKYYFDYWGQGIPLTVSS VL: QLVLTQSSSASFSLGASAKLTCTLSSQHSAYTIEWYQQQPLKPPKFVMDLKKDGSHSTGDGIPARFSGSSSGADRYLTISNIQPEDEAIYICGVGDTIKEQYVFGGGTKVTVLG"
  label value: "not met"
- binder: "HA22-hIgG1 (antibody, V domains shown) VH: EVQLVESGGGLVKPGGSLKLSCAASGFAFSIYDMSWVRQTPEKCLEWVAYISSGGGTTYYPDTVKGRFTISRDNAKNTLYLQMSSLKSEDTAMYYCARHSGYGTHWGVLFAYWGQGTLVTVSA VL: DIQMTQTTSSLSASLGDRVTISCRASQDISNYLNWYQQKPDGTVKLLIYYTSILHSGVPSRFSGSGSGTDYSLTISNLEQEDFATYFCQQGNTLPWTFGCGTKLEIKR"
  label value: "not met"
- binder: "F1.250.16 (antibody, human IgG1, kappa, V domains shown, Chimeric IgG1 kappa) VH: QVQLQQSGAEQVKPGASVKMSCKASGYTFTTYPIEWMKQNHGESLDWIGNIHPYNDDTEYNEKFKGKATLTVEKSSNTVFLELSRLTSDDSAVYYCVRGDYYNSRYWYFDVWGTGTTVTVSS VL: DIVMTQSQKFMSTTVGDRVSITCKAGQNVRTAVAWYQQKPGQSPKLLIYSASTRYIGVPERFTGSGSGTDFTLTITNMQSEDLADYFCQQYSSFPLTFGTGTKLELKR"
  label value: "met"
- binder: "F1.17.1 (antibody, human IgG1, kappa, V domains shown, Chimeric IgG1 kappa) VH: QVQLKESGPGLVAPSQSLSITCTVSGFSLSRYTVHWVRQPPGKGLEWLGMIWGGGSTDYNSALKSRLSISKDNSKSQVFLKMNSLQTDDTAMYYCARPHDFDAGGFAYWGQGTLVTVSA VL: QIVLTQSPAILSTSPGEKVTMTCSASSRVNYMYWYQQKPGSSPRLLIYDTSNLASGVPVRFSGSGSGTSYSLTISRMEAEDAATYYCQQWTSYPLTFGAGTKLELKR"
  label value: "not met"

Attribution: patent US20240084003A1
